Test system: HCT-15
Where a SMILES comes first, the peptide text is derived from it. The star is where a group is joined. Boc = CC(C)(C)OC(=O)*; tBu = CC(C)(C)*
Parameter: GI50

compound="COc1cc([N+](=O)[O-])ccc1N1C(=O)C2c3[nH]c4ccccc4c3C3CCC(C(C)(C)C)CC3C2C1=O (stereo unspecified)" endpoint_value="> 100 µM"
compound=Cc1[nH]n(C2=NCCN2)c(=O)c1C endpoint_value="> 100 µM"
compound="COC(=O)C(C)NP(=O)(N1CC1)N1CC1 (stereo unspecified)" endpoint_value="> 100 µM"
compound=COc1nc2sc3c(c2c(=O)n1CCCSSCCCn1c(OC)nc2sc4c(c2c1=O)CCCC4)CCCC3 endpoint_value="> 100 µM"
compound=COc1ccc(/N=C2\C(=N/c3ccc(OC)cc3)N(c3ccc(N(C)C)cc3)C(=S)N2c2ccc(OC)cc2)cc1 endpoint_value="> 100 µM"
compound=COc1cc2cc[n+]3c4cc(OC)c(OC)cc4c(C)cc3c2cc1OC endpoint_value="> 100 µM"
compound=O=C(Cc1ccccc1CCO)NCCc1ccccc1 endpoint_value="> 100 µM"
compound=O=P1(O)c2ccccc2CCc2ccccc21 endpoint_value="> 100 µM"
compound="CC(OC(C)(C)C)C(NC(=O)C(N)CCCCNC(=O)OC(C)(C)C)C(=O)NC(Cc1ccccc1)C(=O)O (stereo unspecified) (H-Lys(Boc)-Thr(tBu)-Phe-OH; configuration not given here)" endpoint_value="> 100 µM"
compound="Cc1nn(C(=O)c2ccncc2)c2c1C(c1ccccc1)SC(=N)N2 (stereo unspecified)" endpoint_value="> 10 µM"
compound="CC(=O)NC(Cc1ccccc1)C(=S)N1CCCC1 (stereo unspecified)" endpoint_value="> 100 µM"
compound="Cc1ccc(C(=O)C#Cc2cn(C3CC(O)C(CO)O3)c(=O)[nH]c2=O)cc1 (stereo unspecified)" endpoint_value="> 100 µM"
compound=NC1=CN(Cc2ccccc2)C2=N/C(=C\c3ccccc3O)C(=O)N12 endpoint_value="> 100 µM"
compound=COc1ccc(OC)c([N+](=O)[O-])c1-c1nc2sc(C)c(C)n2c1/C=N/N=C(N)N endpoint_value="> 100 µM"
compound="CNC(=O)NCCCC(NC(C)=O)C(=O)NCc1ccccc1 (stereo unspecified)" endpoint_value="> 100 µM"
compound=COc1ccccc1Nc1nc2c([nH]1)c(=O)n(C)c(=O)n2C endpoint_value="> 10 µM"

====

Test system: Hs-578T
Assay name: NCI tumour cell line growth inhibition, 48 h
Calls of active or inactive are those of the source. Rule as the data show it: active = GI50 up to about 1.1 µM and inactive = higher.
Classes used: active, inactive

compound=Cc1ccc(S(=O)(=O)Nc2nc3ccccc3c(=O)n2C2CCCCC2)cc1 class=inactive
compound=Oc1ccccc1/C=N/c1ccc(-c2nc3ccccc3[nH]2)cc1 class=inactive
compound=CN(C)CCNC(=O)c1cccc2nc3c(C(=O)NCCN(C)C)cccc3nc12 class=inactive
compound=N#CC(C#N)=Cn1c(=S)[nH]c2ccc([N+](=O)[O-])cc21 class=inactive
compound=CN(C)CCCNc1ccnc2cc([N+](=O)[O-])ccc12 class=inactive
compound=COc1cc(Oc2nc3ccccc3nc2C(=O)O)cc(OC)c1OC class=inactive
compound=Brc1cccc(Nc2ncnc3sc4c(c23)CCC2(C4)OCCO2)c1 class=inactive
compound=CC(C)=CCN=C(N)N class=inactive
compound=CN(C)CCn1c(=O)c2ccc(NCCN3CCNCC3)c3c(=O)c4ccccc4n(c1=O)c23 class=inactive
compound=C/C(=N\Nc1nc2cccnc2s1)c1ccccn1 class=active
compound=Cc1cccc(/C=C2/C(=O)Nc3ccccc32)n1 class=inactive
compound="Cc1cccc(C)c1NC(=O)C(Cc1c[nH]c2ccccc12)NC(=O)OCc1ccccc1 (stereo not drawn)" class=inactive
compound="Cc1ccc2nc(-c3nccn3C)cc(C(=O)NC(C)CN(C)C)c2c1 (stereo not drawn)" class=inactive
compound=COc1cc(OC)c(OC)cc1/C=C/c1ccc2ccccc2n1 class=inactive
compound="N#CC(c1ccccc1)N(CCOCCOCCN(C(=O)c1cccc2ccccc12)C(C#N)c1ccccc1)C(=O)c1cccc2ccccc12 (stereo not drawn)" class=inactive
compound=COc1ccc(CNC2=N/C(=C\c3ccccc3Cl)C(=O)N2C)cc1 class=inactive
compound="N#C[C@H]1C(=O)C(c2nc3ccccc3[nH]2)S[C@H]1c1ccccc1 (stereo partly drawn)" class=inactive
compound="CCOc1ccc(/N=N/C2C(=O)N(C(=O)CC(=O)Nc3ccccc3)N=C2C)cc1 (stereo not drawn)" class=inactive
compound=O=C(O)c1ccc(C(=O)c2ccccc2C(=O)O)cc1C(=O)O class=inactive
compound=O=c1oc2c/c(=C\c3ccccn3)c(=O)c3cccc1c3-2 class=inactive
compound="CC(c1ccccc1)N1CCN(C(C)c2ccccc2)CC1 (stereo not drawn)" class=inactive
compound=C[C@H]1C2Cc3cc(N)ccc3[C@@]1(C)CCN2CCc1ccccc1 class=inactive
compound="CCOC(=O)C1=C(C)NC(=O)N([N+](=O)[O-])C1c1ccccc1C(F)(F)F (stereo not drawn)" class=inactive
compound=COCCn1cnc2c(Cl)nc(Nc3ccccc3)nc21 class=inactive
compound="C=C(C)C1CC[C@@](C)(O)[C@H](C#N)C1 (stereo partly drawn)" class=inactive
compound=NS(=O)(=O)c1ccc(NC(=O)c2ccc3nc4ccccc4c(Nc4ccc(S(N)(=O)=O)cc4)c3c2)cc1 class=inactive
compound="COc1ccc(N[S+]([O-])c2cccc(C)c2)cc1 (stereo not drawn)" class=inactive
compound=Clc1nc(Nc2nc3ccccc3[nH]2)nc(Cl)c1-c1ccccc1 class=inactive
